The values you see were collected from patent US20260166159A1.

Target: KRAS-G12D (Homo sapiens, UniProt P01116, G12D)
Construct: endogenous in cells; host or cells: A-427 (ATCC), AGS, AsPc-1, Panc 04.03
Sequence (P01116 1-188 isoform P01116-2 G12D): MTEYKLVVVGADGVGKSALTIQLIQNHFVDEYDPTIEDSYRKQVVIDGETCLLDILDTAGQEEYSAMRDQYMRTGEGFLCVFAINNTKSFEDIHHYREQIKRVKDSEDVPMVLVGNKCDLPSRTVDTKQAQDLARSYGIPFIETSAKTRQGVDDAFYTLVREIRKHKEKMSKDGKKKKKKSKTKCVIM
Test: KRAS-G12D degradation assay (Western Blot), AGS cells
Format: cell-based
Conditions: 24 h
quantityKind: Dmax (%)
The reply should contain only the number, in %.

Kindly indicate its recorded Dmax. Item: CCc1c(F)ccc2cc(O)cc(-c3ccc4c(N5CC6CCC(C5)N6)nc(OCC5(CN6CCN(CC7CCC8(CC7)CCN(C(=O)c7ccc(OC)c(N9CCC(=O)NC9=O)c7)CC8)CC6)CC5)nc4c3F)c12
85.7

Kindly indicate its recorded Dmax. Item: CCc1cccc2cc(O)cc(-c3ncc4c(N5CC6CCC(C5)N6)nc(OCC5(CN6CCN(CC7CCC8(CC7)CCN(C(=O)c7ccc(Cl)c(N9CCC(=O)NC9=O)c7)CC8)CC6)CC5)nc4c3F)c12
97.3

Kindly indicate its recorded Dmax. Item: C#Cc1cccc2cc(O)cc(-c3ncc4c(N5CC6CCC(C5)N6)nc(OCC5(CN6CCN(CC7CCC8(CC7)CCN(C(=O)c7ccc(C)c(N9CCC(=O)NC9=O)c7)CC8)CC6)CC5)nc4c3F)c12
99.2

Kindly indicate its recorded Dmax. Item: C#Cc1cccc2cc(O)cc(-c3ccc4c(N5CC6CCC(C5)N6)nc(OCC5(CN6CCN(CC7CCC8(CC7)CCN(C(=O)c7ccc(Cl)c(N9CCC(=O)NC9=O)c7)CC8)CC6)CC5)nc4c3F)c12
92.6

Kindly indicate its recorded Dmax. Item: C#Cc1c(F)ccc2cc(O)cc(-c3ncc4c(N5CC6CCC(C5)N6)nc(OCC5(CN6CCN(CC7CCC8(CC7)CCN(C(=O)c7ccc(Cl)c(N9CCC(=O)NC9=O)c7)CC8)CC6)CC5)nc4c3F)c12
100

Kindly indicate its recorded Dmax. Item: C#Cc1c(F)ccc2cc(O)cc(-c3ccc4c(N5CC6CCC(C5)N6)nc(OCC5(CN6CCN(CC7CCC8(CC7)CCN(C(=O)c7ccc(OC)c(N9CCC(=O)NC9=O)c7)CC8)CC6)CC5)nc4c3F)c12
99.6

Kindly indicate its recorded Dmax. Item: C#Cc1c(F)ccc2cc(O)cc(-c3ccc4c(N5CC6CCC(C5)N6)nc(OCC5(CN6CCN(CC7CCC8(CC7)CCN(C(=O)c7ccc(C)c(N9CCC(=O)NC9=O)c7)CC8)CC6)CC5)nc4c3F)c12
77.4

Kindly indicate its recorded Dmax. Item: [2H]C([2H])([2H])c1ccc(C(=O)N2CCC3(CCC(CN4CCN(C[C@@H](C)COc5nc(N6CC7CCC(C6)N7)c6cnc(-c7cc(O)cc8ccc(F)c(C#C)c78)c(F)c6n5)CC4)CC3)CC2)cc1N1CCC(=O)NC1=O
94.5

Kindly indicate its recorded Dmax. Item: C#Cc1cccc2cc(O)cc(-c3ncc4c(N5CC6CCC(C5)N6)nc(OCC5(CN6CCN(CC7CCC8(CC7)CCN(C(=O)c7ccc(Cl)c(N9CCC(=O)NC9=O)c7)CC8)CC6)CC5)nc4c3F)c12
94.2

---

Biological target: Human KRAS G12D 6His-tagged (Homo sapiens, UniProt P01116, G12D)
Construct: purchased PerkinElmer
Test: KRAS-G12D/GTP binding assay (HTRF)
Conditions: numeric values
Method: In this method, the inhibitory effects of the compounds on the binding of KRAS-G12D to GTP were assayed by a homogeneous time-resolved fluorescence (HTRF) technique using a KRAS-G12D/GTP binding assay kit (PerkinElmer). […]
quantityKind: IC50
Dear colleague, please send the value followed by its unit.

Kindly indicate its recorded IC50. Item: C#Cc1c(F)ccc2cc(O)cc(-c3ncc4c(N5CC6CCC(C5)N6)nc(OCCN5CCN(CCC6CCC7(CC6)CCN(C(=O)c6ccc(Cl)c(N8CCC(=O)NC8=O)c6)CC7)CC5)nc4c3F)c12
21.1 nM

Kindly indicate its recorded IC50. Item: C#Cc1c(F)ccc2cc(O)cc(-c3ccc4c(N5CC6CCC(C5)N6)nc(OCC(C)CN5CCN(CC6CCC7(CC6)CCN(C(=O)c6ccc(C)c(N8CCC(=O)NC8=O)c6)CC7)CC5)nc4c3F)c12 (stereo not shown)
5.19 nM

Kindly indicate its recorded IC50. Item: C#Cc1c(F)ccc2cc(O)cc(-c3ncc4c(N5CC6CCC(C5)N6)nc(OCC(C)CN5CCN(CC6CCC7(CC6)CCN(C(=O)c6ccc(C)c(N8CCC(=O)NC8=O)c6)CC7)CC5)nc4c3F)c12 (stereo not shown)
3.22 nM

Kindly indicate its recorded IC50. Item: C#Cc1c(F)ccc2cc(O)cc(-c3ncc4c(N5CC6CCC(C5)N6)nc(OCC5(CN6CCC(O)(COCCC7CCN(C(=O)c8ccc(Cl)c(N9CCC(=O)NC9=O)c8)CC7)CC6)CC5)nc4c3F)c12
1.15 nM

Kindly indicate its recorded IC50. Item: C#Cc1c(F)ccc2cc(O)cc(-c3ncc4c(N5CC6CCC(C5)N6)nc(OCC5(CN6CCC7(CC6)CCN(C(=O)c6ccc(Cl)c(N8CCC(=O)NC8=O)c6)CC7)CC5)nc4c3F)c12
1.34 nM

Kindly indicate its recorded IC50. Item: C#Cc1c(F)ccc2cc(O)cc(-c3ncc4c(N5CC6CCC(C5)N6)nc(OCC(C)CN5CCN(CC6CCC7(CC6)CCN(C(=O)c6ccc(OC)c(N8CCC(=O)NC8=O)c6)CC7)CC5)nc4c3F)c12 (stereo not shown)
2.47 nM

Kindly indicate its recorded IC50. Item: C#Cc1c(F)ccc2cc(O)cc(-c3ncc4c(N5CC6CCC(C5)N6)nc(OCC5(CN6CCN(C(=O)c7ccc(Cl)c(N8CCC(=O)NC8=O)c7)CC6)CC5)nc4c3F)c12
2.4 nM
